System: CCRF-CEM leukemia
Test Name: NCI tumour cell line growth inhibition, 48 h; in the data active = GI50 below about 0.43 µM; inactive = the rest
Return exactly one item of True for active, False for inactive

Consider the worked cases shown below.
COc1ncc(-c2ccc3nc(N)n(-c4ccccc4C(F)(F)F)c(=O)c3c2)cc1S(=O)(=O)Nc1ccc(F)cc1F	False
Nc1nc(-c2ccccn2)c(-c2ccc3ncccc3n2)s1	False
COc1cc2nc(NC3CCC3)nc(NC3CCN(C(C)C)CC3)c2cc1OC	False
C=C1C(=O)O[C@H]2[C@H]1CC/C(COC(=O)NCc1ccc(Cn3c(=O)sn(CCCI)c3=O)cc1)=C\CC[C@@]1(C)O[C@@H]21	True
N/C(=N\O)c1cn(C2OC(CO)C(O)C2O)c2ncnc(N)c12 (centres undefined)	True

Test call for this molecule, please: COc1cc(-c2nn(-c3cccc(NC(=O)NCCNC(=O)c4ccccc4)c3)cc2-c2ccncc2)ccc1Cl
False

And what about the molecule CC1SC(c2ccc(OCc3ccccc3)cc2)N(NC(=O)C(O)(c2ccccc2)c2ccccc2)C1=O (centres undefined) ?
False

Entry to check: O=C(c1ccco1)c1c(C(F)(F)F)n([O-])c2cc(Cl)c(Cl)cc2[n+]1=O
True

Same for CC(C)c1c(C(=O)Nc2ccccc2)c(-c2ccccc2)c(-c2ccc(F)cc2)n1CC[C@@H](O)C[C@@H](O)CC(=O)O
False
